Assay: Components of the Cytosolic LPS Sensing Pathway: Gene Identification via Genome-wide siRNA Screen
Settings: RAW264.7 macrophages, IL-1a HTRF, actives lie on both sides, screened at 100 nM (by protocol), cells primed 5 h with Pam3CSK4 first
Out of some 53,000 sequences screened, about 3,700 (7%) were called active.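 Rule for the calls: active = gene knockdowns whose robust z-score for IL-1 alpha signal is at least 2 or at most -2, so actives lie on both sides; inactive = the rest.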 The entries come from a sample that favours actives as a whole.
Classes used: active, inactive

primary_sequence="GGAUACAUUAAUUGUUUGGTT against Ppp4r3b" assigned_class=active
primary_sequence="GGAGCAAGAGUCUAAAUGATT against Rubcn" assigned_class=active
primary_sequence="GCACGUCAGAAUCUCCAGATT against Pln" assigned_class=inactive
primary_sequence="GGUCCUAACCGACAUGUCUTT against Vrk1" assigned_class=inactive
primary_sequence="GGAAGACAAGGUUUUAGCUTT against Ulbp1" assigned_class=inactive
primary_sequence="GCACUGCAUAUUCCGCACUTT against Nubp2" assigned_class=inactive
primary_sequence="GGCAGUAAAUAGUAAGAAATT against Ccr9" assigned_class=inactive
primary_sequence="CCUGCUAUGUAAUAUAGAUTT against Eef2k" assigned_class=inactive
primary_sequence="CCAGUUGUGUGAAUUAUGUTT against Psmd2" assigned_class=inactive
primary_sequence="GCAAAUUGGUCAUCGACUGTT against Alg1" assigned_class=inactive
primary_sequence="GGAUUGAGUGACGACUGACTT against Nova2" assigned_class=active
primary_sequence="GGACAAGCUCCAAAACAACTT against Srsf4" assigned_class=inactive
primary_sequence="GCUCUUAGAGAUUUGUUUGTT against Usp14" assigned_class=inactive
primary_sequence="GGGCUGAUAAUGUUAGCUCTT against Olfr161" assigned_class=inactive
primary_sequence="GCACAACAAGCGAUGUCAUTT against Myo9b" assigned_class=active
primary_sequence="CCCUGAAACCUCGGUGUUUTT against Vmac" assigned_class=inactive
primary_sequence="GGUGUGAGUGUCGGAAUCUTT against Islr2" assigned_class=inactive
primary_sequence="GGUGGAAGAAGAAAUUGUCTT against Tpd52l2" assigned_class=active
primary_sequence="GGCCCUCACAAUGAAUAUGTT against Efs" assigned_class=inactive
primary_sequence="GGGAAGCAAUAAGUCGCCUTT against Shc4" assigned_class=inactive
primary_sequence="CCUUGUACACGGAUUGAAUTT against Itga6" assigned_class=inactive
primary_sequence="CCCAUCUGUUUGAGUGUAUTT against Ms4a1" assigned_class=inactive
primary_sequence="GGCAGUGUGUUAGAUUCUUTT against Cts3" assigned_class=active
primary_sequence="GGCAUGCUGGAAUCAAACATT against Dppa2" assigned_class=inactive
primary_sequence="GCCAGACUGGAGGUAAAAUTT against Serpinb10" assigned_class=active

* * *

Assay: Components of the Cytosolic LPS Sensing Pathway: Gene Identification via Genome-wide siRNA Screen
Conditions: RAW264.7 macrophages, IL-1a HTRF, actives lie on both sides, screened at 100 nM (by protocol), cells primed 5 h with Pam3CSK4 first
Experimental: Non-canonical inflammasome activation by cytosolic LPS is a critical component of the host response to Gram-negative bacterial infection, however we lack a comprehensive understanding of the cellular processes that control this pathway. […] Lipofectamine RNAiMAX Transfection Reagent ([…]; Invitrogen) was added in […] serum-free, antibiotic-free media to plate wells using a Thermo Scientific Matrix WellMate and Microplate Stacker. […] The plates were read on an EnVision plate reader (PerkinElmer). […]
Screen size: about 53,000 sequences; about 3,700 (7%) were called active. This excerpt belongs to a sample that is enriched for actives.
Just a reminder that ties go to False: only z-score strictly below -0.02 counts as True.

primary_sequence="GCAUGAGUUAGACCAUAAUTT against Phf12" assigned_class=True
primary_sequence="CCUCUGCUUUGUUACUUCCTT against Olfr1431" assigned_class=True
primary_sequence="CCUGAUUAUUCUGAGAAAUTT against Adsl" assigned_class=False
primary_sequence="GGCAUUGAAGGAAGUGAUCTT against Psmg3" assigned_class=True
primary_sequence="GGGAGCAAAUGUAAUUUAUTT against Tbpl1" assigned_class=False
primary_sequence="GGAAAUCGAGGUUACAAGUTT against Isy1" assigned_class=True
primary_sequence="GGCAAAAGGGACAAAAACUTT against Gadd45a" assigned_class=True
primary_sequence="CCUACGAGGAUACUUACAATT against Kif18b" assigned_class=False
primary_sequence="GGCUUCUUCAGAUCCUAAATT against Olfr554" assigned_class=True
primary_sequence="GGAAGUUUUGUUCCUGCAUTT against Nars2" assigned_class=True
primary_sequence="GCCAAAUGAACUAGCAAUATT against Golm1" assigned_class=False
primary_sequence="ACAAAUCCACGUGCAAUGUTT against Cyp2d9" assigned_class=False
